# MEASURED ON: hM3 muscarinic receptor (Homo sapiens (Human))
# Sequence (P20309 whole entry): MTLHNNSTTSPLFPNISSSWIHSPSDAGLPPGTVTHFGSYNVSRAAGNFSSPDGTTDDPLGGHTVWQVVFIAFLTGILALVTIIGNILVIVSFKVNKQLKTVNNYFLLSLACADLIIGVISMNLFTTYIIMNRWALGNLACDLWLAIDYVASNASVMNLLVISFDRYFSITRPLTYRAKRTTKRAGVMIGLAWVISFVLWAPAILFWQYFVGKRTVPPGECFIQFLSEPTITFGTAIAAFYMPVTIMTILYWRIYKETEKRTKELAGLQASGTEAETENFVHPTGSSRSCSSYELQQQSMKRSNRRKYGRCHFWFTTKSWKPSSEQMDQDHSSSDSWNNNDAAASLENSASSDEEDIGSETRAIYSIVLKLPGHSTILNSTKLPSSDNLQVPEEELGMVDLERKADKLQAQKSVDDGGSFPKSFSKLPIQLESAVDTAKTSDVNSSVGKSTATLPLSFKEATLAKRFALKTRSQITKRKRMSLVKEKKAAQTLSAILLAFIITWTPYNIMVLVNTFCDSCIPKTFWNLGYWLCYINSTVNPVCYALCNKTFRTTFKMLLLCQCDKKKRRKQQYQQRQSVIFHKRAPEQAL
# PROTOCOL TEXT: Radioligand binding assay for muscarinic receptors ([3H]-NMS displacement, CHO cell membranes)
PROPERTY LABEL: pKi
# log scale: pKi equals minus log10 of the concentration in mol/L

*Q* For the compound `CN(C(=O)CCN1CCC(OC(=O)Nc2ccccc2-c2ccccc2)CC1)c1cccc(CC(=O)Nc2ccc(CCNC[C@H](O)c3ccc(O)c4[nH]c(=O)ccc34)cc2)c1` , give its reported pKi.
*A* 10.00

*Q* For the compound CC(Cc1cccc(CC(=O)NCCCN(C)C(=O)CCN2CCC(OC(=O)Nc3ccccc3-c3ccccc3)CC2)c1)NC[C@H](O)c1ccc(O)c2[nH]c(=O)ccc12 (stereo partly shown) , give its reported pKi.
*A* 10.00

*Q* For the compound `C[C@@H](Cc1ccc(CCNC(=O)c2ccc(N(C)C(=O)CCN3CCC(OC(=O)Nc4ccccc4-c4ccccc4)CC3)cc2)cc1)NC[C@H](O)c1ccc(O)c2[nH]c(=O)ccc12` , give its reported pKi.
*A* 9.70

*Q* For the compound `CN(C(=O)CCN1CCC(OC(=O)Nc2ccccc2-c2ccccc2)CC1)c1ccc(CC(=O)NCc2cccc(CCNC[C@H](O)c3ccc(O)c4[nH]c(=O)ccc34)c2)cc1` , give its reported pKi.
*A* 10.00

*Q* For the compound `COc1cc(CNC[C@H](O)c2ccc(O)c3[nH]c(=O)ccc23)ccc1NC(=O)CCCCN(C)C(=O)CCN1CCC(OC(=O)Nc2ccccc2-c2ccccc2)CC1` , give its reported pKi.
*A* 10.00

***
*Q* For the compound `CN(C(=O)CCN1CCC(OC(=O)Nc2ccccc2-c2ccccc2)CC1)c1cccc(CC(=O)Nc2ccc(CNC[C@H](O)c3ccc(O)c4[nH]c(=O)ccc34)cc2)c1` , give its reported pKi.
*A* 10.00

*Q* For the compound `COc1cc(NC(=O)CCCCN(C)C(=O)CCN2CCC(OC(=O)Nc3ccccc3-c3ccccc3)CC2)c(Cl)cc1CNC[C@H](O)c1ccc(O)c2[nH]c(=O)ccc12` , give its reported pKi.
*A* 10.00

*Q* For the compound `C[C@H](Cc1cccc(CNC(=O)Cc2ccc(N(C)C(=O)CCN3CCC(OC(=O)Nc4ccccc4-c4ccccc4)CC3)cc2)c1)NC[C@H](O)c1ccc(O)c2[nH]c(=O)ccc12` , give its reported pKi.
*A* 10.00

*Q* For the compound Cc1ccc(C(=O)Nc2cccc(CC(C)NC[C@H](O)c3ccc(O)c4[nH]c(=O)ccc34)c2)cc1N(C)C(=O)CCN1CCC(OC(=O)Nc2ccccc2-c2ccccc2)CC1 (stereo partly shown) , give its reported pKi.
*A* 9.70

*Q* For the compound CC(Cc1ccc(CNC(=O)c2cccc(N(C)C(=O)CCN3CCC(OC(=O)Nc4ccccc4-c4ccccc4)CC3)c2)cc1)NC[C@H](O)c1ccc(O)c2[nH]c(=O)ccc12 (stereo partly shown) , give its reported pKi.
*A* 10.00
